Molecular target: Beta-secretase 1 (Cricetulus griseus, UniProt G3IAK4)
Sequence (G3IAK4 whole entry): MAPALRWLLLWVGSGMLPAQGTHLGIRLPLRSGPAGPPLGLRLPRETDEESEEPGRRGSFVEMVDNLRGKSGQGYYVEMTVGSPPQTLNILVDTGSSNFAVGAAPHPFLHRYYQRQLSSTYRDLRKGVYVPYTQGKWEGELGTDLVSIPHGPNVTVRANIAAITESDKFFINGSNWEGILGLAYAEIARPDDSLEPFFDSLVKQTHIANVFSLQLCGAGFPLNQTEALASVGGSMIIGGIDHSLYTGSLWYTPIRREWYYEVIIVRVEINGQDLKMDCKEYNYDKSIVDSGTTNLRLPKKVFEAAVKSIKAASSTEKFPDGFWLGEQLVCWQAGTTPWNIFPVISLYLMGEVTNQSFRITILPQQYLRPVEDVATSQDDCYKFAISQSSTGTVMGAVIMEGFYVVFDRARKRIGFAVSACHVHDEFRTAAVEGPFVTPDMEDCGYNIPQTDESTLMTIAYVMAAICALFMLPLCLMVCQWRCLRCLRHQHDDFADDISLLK
Assay: Inhibition of APP751 (unknown origin) expressed in CHO cells
Type: cell-based, Homo sapiens
recorded_endpoint: pIC50
pIC50 (log units): -log10 of the concentration in mol/L.

Field request: pIC50 | item: C[C@@]1(c2cccc(NC(=O)c3ccc(Br)cn3)c2)CCSC(N)=N1
8.40

* * *

Measured pIC50 on Cathepsin D (Homo sapiens, UniProt P07339) follows.
Sequence (P07339 65-162 limits assumed): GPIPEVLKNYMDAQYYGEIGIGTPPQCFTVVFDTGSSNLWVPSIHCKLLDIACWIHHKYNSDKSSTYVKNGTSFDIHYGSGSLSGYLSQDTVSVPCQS
Sequence (P07339 169-412 limits assumed): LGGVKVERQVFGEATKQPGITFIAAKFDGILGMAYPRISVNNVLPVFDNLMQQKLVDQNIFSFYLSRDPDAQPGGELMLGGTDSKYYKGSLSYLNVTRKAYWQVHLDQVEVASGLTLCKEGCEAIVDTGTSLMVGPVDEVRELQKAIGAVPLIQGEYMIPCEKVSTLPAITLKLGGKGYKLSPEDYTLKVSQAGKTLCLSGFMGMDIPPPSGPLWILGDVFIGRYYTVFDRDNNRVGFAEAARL
pIC50: −log10 of the molar value.

Worked examples, 2 molecules total:
- molecule: "C[C@@]1(c2cc(NC(=O)c3ncc(C#N)cn3)ccc2F)CO[C@@](C)(C(F)(F)F)C(N)=N1 (racemic)"
  pIC50: "< 3.60"
- molecule: "C[C@@]1(c2cc(NC(=O)c3ncc(C#N)cc3Cl)ccc2F)CO[C@@](C)(C(F)(F)F)C(N)=N1"
  pIC50: "< 3.60"

Any idea what pIC50 came out for Cc1cc(OC(F)F)cnc1C(=O)Nc1ccc(F)c([C@]2(C)CO[C@@](C)(C(F)(F)F)C(N)=N2)c1 on Cathepsin D (Homo sapiens, UniProt P07339)?
< 3.60

* * *

Experiment: Volume of distribution at steady state in Beagle dogs at 0.1 mg/kg, iv measured up to 408 hrs by LC/MS/MS analysis
Settings: dog, in vivo, read-out: Vdss
recorded_endpoint: Vd (L/kg)
State just the number; it will be interpreted in L/kg.

Using the record for Cc1cc(C#N)cnc1C(=O)Nc1ccc(F)c([C@]2(C)CO[C@@](C)(C(F)(F)F)C(N)=N2)c1 , report its Vd.
0.9

* * *

Test: Oral bioavailability in Sprague-Dawley rat at 6 umol/kg measured up to 48 hrs by LC/MS/MS analysis
Assay type: ADME, organism-based
Settings: in vivo, at 6 µmol/kg
recorded_endpoint: bioavailability (%)
Give the value in % but do not write % after it.

Param item = Cc1cc(C#N)cnc1C(=O)Nc1ccc(F)c([C@]2(C)CO[C@@](C)(C(F)(F)F)C(N)=N2)c1 ; retrieve measured bioavailability.
77

* * *

Recorded IC50 values (Cathepsin D (Homo sapiens, UniProt P07339)) are given below.

Field: example entries. Status: answers known.
- compound: "C[C@@]1(c2cc(NC(=O)c3ccc(Br)cn3)ccc2F)CO[C@@](C)(C(F)(F)F)C(N)=N1 (racemic)"
  measured_target: "Cathepsin D (Homo sapiens, UniProt P07339)"
  IC50: "> 250 µM"
- compound: "C[C@@]1(c2cc(NC(=O)c3ncc(Br)cn3)ccc2F)CO[C@@](C)(C(F)(F)F)C(N)=N1"
  measured_target: "Cathepsin D (Homo sapiens, UniProt P07339)"
  IC50: "180 µM"
- compound: "C[C@]1(C(F)(F)F)OC[C@@](C)(c2cccc(NC(=O)c3ccc(Br)cn3)c2)N=C1N (racemic)"
  measured_target: "Cathepsin D (Homo sapiens, UniProt P07339)"
  IC50: "139 µM"
- compound: "C[C@@]1(c2cc(NC(=O)c3ncc(Cl)cc3Cl)ccc2F)CO[C@@](C)(C(F)(F)F)C(N)=N1"
  measured_target: "Cathepsin D (Homo sapiens, UniProt P07339)"
  IC50: "> 250 µM"
- compound: "C[C@@]1(c2cccc(NC(=O)c3ccc(Br)cn3)c2)CO[C@@](C)(C(F)(F)F)C(N)=N1 (racemic)"
  measured_target: "Cathepsin D (Homo sapiens, UniProt P07339)"
  IC50: "73 µM"

Checklist item: IC50 tested on Cathepsin D (Homo sapiens, UniProt P07339), entry C[C@@]1(c2cc(NC(=O)c3ccc(Br)cn3)ccc2F)CO[C@@](C)(C(F)(F)F)C(N)=N1 , value?
> 250 µM

Fill in the recorded IC50 for this compound, with Cathepsin D (Homo sapiens, UniProt P07339) as test system: COc1cnc(C(=O)Nc2ccc(F)c([C@]3(C)CO[C@@](C)(C(F)(F)F)C(N)=N3)c2)c(C)c1
> 250 µM

Can you look up IC50 on Cathepsin D (Homo sapiens, UniProt P07339) for C[C@@]1(c2cccc(NC(=O)c3ccc(Br)cn3)c2)COCC(N)=N1 ?
> 10 µM

* * *

Tested on: P-gp (MDR1)
Experiment: Efflux ratio of apparent permeability across basolateral to apical side over apical to basolateral side in dog MDCK-MDR1 cells measured after 1 hr by HPLC-MS analysis
Here, each record is paired with measured efflux ratio at 1 h data.

- molecule: "C[C@@]1(c2cccc(NC(=O)c3ccc(Br)cn3)c2)CO[C@@](C)(C(F)(F)F)C(N)=N1 (racemic)"
  recorded_endpoint: "efflux ratio at 1 h"
  result: 1.9

Find the recorded efflux ratio at 1 h belonging to C[C@]1(C(F)(F)F)OC[C@@](C)(c2cccc(NC(=O)c3ccc(Br)cn3)c2)N=C1N (racemic) and report it.
1.6

* * *

Assay: Volume of distribution at steady state in Sprague-Dawley rat at 2 umol/kg, iv measured up to 48 hrs by LC/MS/MS analysis
Assay type: ADME, organism-based
Settings: in vivo, dose 2 µmol/kg, read-out: Vdss
recorded_endpoint: Vd (L/kg)
Give the value in L/kg but do not write L/kg after it.

Query (compound): Cc1cc(C#N)cnc1C(=O)Nc1ccc(F)c([C@]2(C)CO[C@@](C)(C(F)(F)F)C(N)=N2)c1 ; field requested: Vd
9

* * *

Test: Half life in Beagle dog at 0.1 mg/kg, iv measured up to 408 hrs by LC/MS/MS analysis
Conditions: in vivo
recorded_endpoint: half-life (h)
Give the quantity in h, number only.

Given the entry Cc1cc(C#N)cnc1C(=O)Nc1ccc(F)c([C@]2(C)CO[C@@](C)(C(F)(F)F)C(N)=N2)c1 , report its measured half-life.
36
